For each entry below, report its PAM type value.
TEST_SYSTEM: hα7-wt nAChR (Homo sapiens)
Sequence (P36544 23-502): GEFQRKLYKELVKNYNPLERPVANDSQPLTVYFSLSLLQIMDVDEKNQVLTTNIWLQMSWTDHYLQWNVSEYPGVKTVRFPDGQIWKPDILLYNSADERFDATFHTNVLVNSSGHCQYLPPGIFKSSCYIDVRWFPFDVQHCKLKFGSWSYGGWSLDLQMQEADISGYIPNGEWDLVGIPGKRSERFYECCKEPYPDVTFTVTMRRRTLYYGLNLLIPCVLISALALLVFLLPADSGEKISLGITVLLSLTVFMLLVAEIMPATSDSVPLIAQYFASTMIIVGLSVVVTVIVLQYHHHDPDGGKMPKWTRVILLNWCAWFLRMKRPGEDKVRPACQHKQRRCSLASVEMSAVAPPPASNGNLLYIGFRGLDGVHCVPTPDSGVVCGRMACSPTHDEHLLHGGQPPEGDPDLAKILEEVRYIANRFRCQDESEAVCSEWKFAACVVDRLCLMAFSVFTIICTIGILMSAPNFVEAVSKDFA
ASSAY_DETAILS: Patch-clamp current recording (whole-cell voltage clamp), potentiation of choline current and PAM type
Assay type: cell-based
Parameters: key: Type 0 compounds minimally enhance the effect size of the current elicited by 1 mM choline.; Type 1 compounds enhance the effect size of the current elicited by 1 mM choline but minimally alter the kinetics of the receptor.; Type 2 compounds enhance the effect size of the current elicited by 1 mM choline while reducing the rate and/or the extent of desensitization.; Type 3 compounds enhance the effect size of the current elicited by 1 mM choline. When tested at higher concentrations up to 10 μM they completely inhibit desensitization, in particular a 1 mM choline application of 250 milliseconds.; Type 4 compounds allow for an initial desensitization of the receptor followed by a re-opening of the receptor during agonist application
DETAILS: hα7-wt nAChR-expressing GH4C1 cells, 1 mM choline
From the text: The compounds of the present invention are classified as type 0-4, based on qualitative kinetic properties, as determined by whole-cell voltage-clamp recordings. […] The compounds also have a potentiating effect on the response to choline when measured by whole-cell patch clamp electrophysiology in GH4C1 cells stably over-expressing the human wild-type α7 receptor. […]
Give bare numbers.

Worked examples, 3 compounds total:
* CC[C@H](O)Cc1cc(Nc2cc(Cl)cc(OC)c2)nn1-c1ccnc(C)c1 | 2
* Cc1cc(-n2nc(Nc3cccc(Cl)c3F)cc2CC(=O)NCC2CC2)ccn1 | 4
* Cc1cc(-n2nc(Nc3ccc4c(c3)OC(F)(F)O4)cc2CC(=O)NCC2CC2)ccn1 | 2

Could you now consider this next compound?
Reported PAM type of `Cc1cc(-n2nc(Nc3cccc(Cl)c3F)cc2CC(=O)NC2CC2)ccn1` : 3
